Recorded values, source paper PMC5883364.

# System: Plasmodium berghei NK65
# TEST DETAILS: Peters' 4-day suppressive test in Swiss albino mice
# Type: in vivo
# EXPERIMENTAL SETUP: mice, 50 mg/kg/day oral for 4 days, day 5

# COMPOUND, Mean parasitaemia ± SD, Day 5 / %
rows = [
    ("CCCCNC(=O)C1CCC2(CC1)OOC1(O2)C2CC3CC(C2)CC1C3 (centres unmarked) [LC92]", 0.02),
    ("O=S1(=O)N=C(NCC2CCC3(CC2)OOC2(O3)C3CC4CC(C3)CC2C4)c2ccccc21 (centres unmarked) [LC130]", 0),
    ("CC(C)(C)OC(=O)NCCCCNC(=O)C1CCC2(CC1)OOC1(O2)C2CC3CC(C2)CC1C3 (centres unmarked) [MIS13]", 0.11),
    ("O=S1(=O)N=C(OCC2CCC3(CC2)OOC2(O3)C3CC4CC(C3)CC2C4)c2ccccc21 (centres unmarked) [LC129]", 0.19),
    ("Cn1nnc(NCC2CCC3(CC2)OOC2(O3)C3CC4CC(C3)CC2C4)n1 (centres unmarked) [LC131]", 0),
    ("C1C2CC3CC1CC(C2)C31OOC2(CCC(Nc3nnn[nH]3)CC2)OO1 (centres unmarked) [LC163]", 0),
    ("C1C2CC3CC1CC(C2)C31OOC2(CCC(Nc3nnn[nH]3)CC2)O1 (centres unmarked) [LC136]", 0),
    ("c1ccc(-n2nnnc2OCC2CCC3(CC2)OOC2(O3)C3CC4CC(C3)CC2C4)cc1 (centres unmarked) [LC132]", 0),
]

---

# System: V79 (Chinese hamster lung) cells
# EXPERIMENTAL SETUP: V79 vs IPC5202
Listing: Selectivity index LD50 (V79)/IC50 (IPC5202) of selected compounds
RESULT TYPE: Selectivity index LD50 (V79)/IC50 (IPC5202)

# COMPOUND, TARGET OR TEST SYSTEM, READOUT NUMBER
rows = [
    ("CCCCNC(=O)C1CCC2(CC1)OOC1(O2)C2CC3CC(C2)CC1C3 (stereo not shown)", "V79 (Chinese hamster lung) cells", 26525.2),
    ("C1C2CC3CC1CC(C2)C31OOC2(CCC(Nc3nnn[nH]3)CC2)OO1 (stereo not shown)", "V79 (Chinese hamster lung) cells", 14064.7),
    ("C[C@@H]1CC[C@H]2[C@@H](C)C(=O)O[C@@H]3O[C@@]4(C)CC[C@@H]1[C@]32OO4 [ART, artemisinin, reference compound]", "V79 (Chinese hamster lung) cells", 12499.5),
    ("CC(C)(C)OC(=O)NCCCCNC(=O)C1CCC2(CC1)OOC1(O2)C2CC3CC(C2)CC1C3 (stereo not shown)", "V79 (Chinese hamster lung) cells", 588235.2),
]

---

# Tested on: P. falciparum 3D7 (chloroquine and mefloquine sensitive)
# TEST DETAILS: SYBR Green I assay, IC50, strain 3D7
# Type: cell-based, Plasmodium falciparum
# EXPERIMENTAL SETUP: Plasmodium falciparum, 3D7, strain 3D7; read-out: P. falciparum IC50 ± SD, 3D7
pIC50: −log10 of the molar value.
Attribute: pIC50

# COMPOUND, pIC50
data = [
    ("O=c1nn[nH]n1-c1ccccc1", "< 5.00"),
    ("C1C2CC3CC1CC(C2)C31OOC2(CCC(Nc3nnn[nH]3)CC2)OO1 (stereo not shown)", "> 7.00"),
    ("CC(C)(C)OC(=O)NCCCCN [LC64, tert-butyl(4-aminobutyl)carbamate]", "< 5.00"),
    ("O=S1(=O)N=C(Cl)c2ccccc21 [LC60, 3-chloro-1,2-benzisothiazole-1,1-dioxide]", "< 5.00"),
]

---

# System: V79 (Chinese hamster lung) cells
# EXPERIMENTAL SETUP: V79 vs 3D7
# Method: Cytotoxicity was assessed on the mammalian cell lines HepG2-A16 (human hepatoma) and V79 (Chinese hamster lung), using a MTT based assay, as previously described. […] V79 and HepG2 cell lines were incubated for 24 and 48 h, respectively (media changed at 24 h intervals). Absorbance was read at 570 nm on a multi-mode microplate reader (Triad, Dynex Technologies), to produce a log dose-dependence curve. […]
List of Selectivity index LD50 (V79)/IC50 (3D7) values.

# COMPOUND, Selectivity index LD50 (V79)/IC50 (3D7)
measured = [
    ("C[C@@H]1CC[C@H]2[C@@H](C)C(=O)O[C@@H]3O[C@@]4(C)CC[C@@H]1[C@]32OO4 [ART, artemisinin, reference compound]", 104844.6),
    ("C1C2CC3CC1CC(C2)C31OOC2(CCC(Nc3nnn[nH]3)CC2)OO1 (stereo not drawn)", 15873.0),
    ("CC(C)(C)OC(=O)NCCCCNC(=O)C1CCC2(CC1)OOC1(O2)C2CC3CC(C2)CC1C3 (stereo not drawn)", 135135.1),
]

---

# Test system: HepG2-A16 (human hepatoma) cells
# EXPERIMENTAL SETUP: human, 48 h
# Method: Cytotoxicity was assessed on the mammalian cell lines HepG2-A16 (human hepatoma) and V79 (Chinese hamster lung), using a MTT based assay, as previously described. […] V79 and HepG2 cell lines were incubated for 24 and 48 h, respectively (media changed at 24 h intervals). Absorbance was read at 570 nm on a multi-mode microplate reader (Triad, Dynex Technologies), to produce a log dose-dependence curve. […]
Measured LD50 HepG2 of individual entries

# COMPOUND, RESULT UNITS, LD50 HepG2
data = [
    ("CC(C)(C)OC(=O)NCCCCNC1CCC2(CC1)OOC1(O2)C2CC3CC(C2)CC1C3 (stereo not drawn)", "mM", 0.3),
    ("O=S1(=O)N=C(Cl)c2ccccc21 [LC60, 3-chloro-1,2-benzisothiazole-1,1-dioxide]", "mM", 1.0),
    ("c1ccc(-n2nnnc2OCC2CCC3(CC2)OOC2(O3)C3CC4CC(C3)CC2C4)cc1 (stereo not drawn)", "mM", 1.0),
    ("C[C@@H]1CC[C@H]2[C@@H](C)C(=O)O[C@@H]3O[C@@]4(C)CC[C@@H]1[C@]32OO4 [ART, artemisinin, reference compound]", "mM", 0.4),
    ("O=S1(=O)N=C(OCC2CCC3(CC2)OOC2(O3)C3CC4CC(C3)CC2C4)c2ccccc21 (stereo not drawn)", "mM", 1.0),
    ("CCCCNC(=O)C1CCC2(CC1)OOC1(O2)C2CC3CC(C2)CC1C3 (stereo not drawn)", "mM", 1.0),
    ("Cn1nnc(NCC2CCC3(CC2)OOC2(O3)C3CC4CC(C3)CC2C4)n1 (stereo not drawn)", "mM", 1.0),
    ("O=C(Nc1nnn[nH]1)C1CCC2(CC1)OOC1(O2)C2CC3CC(C2)CC1C3 (stereo not drawn)", "mM", 1.0),
    ("NCCCCNC1CCC2(CC1)OOC1(O2)C2CC3CC(C2)CC1C3 (stereo not drawn)", "mM", 1.0),
]
